- System: HCC 2998
- experimentSummary: NCI tumour cell line growth inhibition, 48 h
Activity calls are given as the source filed them. No stated cut-off is given here; in the data, active = GI50 up to about 1.1 µM and inactive = higher.
reportedEndpoint: GI50

CC1SCc2nc3ccccc3n21 (configuration not stated); > 100 µM (inactive)

Report GI50 for each item below.
1. CC(C)CCc1c(Cl)nc(Cl)nc1Cl
2. CC1C(NNC(N)=O)Oc2cc3c(cc2C1c1ccccc1O)OCO3 (configuration not stated)
3. Cn1/c(=N\c2ccccc2[N+](=O)[O-])sc2ccccc21

Ans.
1. 16.5 µM (inactive)
2. 84.3 µM (inactive)
3. 30.3 µM (inactive)

Report GI50 for each item below.
1. CN(C)c1ccc(N=O)c(O)c1.CN(C)c1ccc(N=O)c(O)c1.[SiH4]
2. CC(C)CC(=O)OC[n+]1cccc(-c2c(COC(=O)NC(C)C)c(COC(=O)NC(C)C)c3n2CCC3)c1
3. CCOc1ccccc1NC(=O)C(=O)CC(=O)c1sc(Nc2nnc(-c3ccc(Cl)c(Cl)c3)o2)nc1C
4. CN(c1ccccc1)c1c(-c2ccccc2)c(=O)oc2c1ccc1occc12
5. Cc1nccc2c1cnc1ccnn12
6. C/C(CC(=O)NCCc1ccccc1)=N\NS(=O)(=O)c1ccc(C)cc1
7. O=[N+]([O-])C1(CO)COC(CCc2ccccc2)OC1 (configuration not stated)
8. CCCNC(C#N)c1ccc(OCCCCCCCCCCOc2ccc(C(C#N)NCCC)cc2)cc1 (configuration not stated)

Ans.
1: 15.4 µM (inactive); 2: > 100 µM (inactive); 3: > 100 µM (inactive); 4: > 100 µM (inactive); 5: > 100 µM (inactive); 6: > 100 µM (inactive); 7: > 100 µM (inactive); 8: > 100 µM (inactive)

Report GI50 for each item below.
1. CC12CC3C(CC1SCC(=O)O2)C3(C)C (configuration not stated)
2. COc1ccc(OC)c(C2CCc3cnc4nc(N)nc(N)c4c3C2)c1 (configuration not stated)
3. COc1cc(O)c2c(c1)C(=O)c1cc3c(c(O)c1C2=O)C(OC1OC(C)C(OC)C(O)C1OC)C(OC)C(C)(O)C3=O (configuration not stated)
4. C[Si](C)(C)/C=C\CCO
5. CCOc1cc2c(cc1O)C(O)C[C@@H]1[C@@H]2CC[C@]2(C)[C@@H](O)CC[C@@H]12 (some centres not stated)
6. Cc1ccc2c(c1)C(=O)c1ccc(C)nc1C2=O
7. O=C(Cc1nc2ccccc2o1)C(=O)Nc1ccc(Cl)cc1Cl

Ans.
1. > 100 µM (inactive)
2. > 100 µM (inactive)
3. 5.02 µM (inactive)
4. > 100 µM (inactive)
5. 3.03 µM (inactive)
6. 31.3 µM (inactive)
7. > 100 µM (inactive)

Report GI50 for each item below.
1. O=C(CCc1n[nH]c(=S)o1)Nc1cc(Cl)ccc1Cl
2. CC(C)CC(NC(=O)C(CI)Cc1ccccc1)C(=O)Nc1ccccc1 (configuration not stated)
3. CC(C)c1cccc(C(C)C)c1N1C(=O)C(=O)C(c2nc3ccccc3o2)C(=O)C1=O

Ans.
1. > 100 µM (inactive)
2. > 100 µM (inactive)
3. 24.3 µM (inactive)

---

- System: NCI/ADR-RES
- experimentSummary: NCI tumour cell line growth inhibition, 48 h
Activity calls are given as the source filed them. Rule as the data show it: active = GI50 up to about 1.1 µM and inactive = higher.
Assignment: determine reported GI50 for the given compounds.

Example cases with answers are listed next.
Cc1ccc(-n2c(Cn3nnc(-c4cccnc4)n3)nn(C3OC(COC(=O)c4ccccc4)C(OC(=O)c4ccccc4)C3OC(=O)c3ccccc3)c2=S)cc1 (stereo not given); > 100 µM (inactive)
CCS(=O)(=O)CCn1cnc2c1c(=O)n(C)c(=O)n2C; > 100 µM (inactive)
CCOC1=C(c2ccccc2)N2CCCCC2O1 (stereo not given); 23.7 µM (inactive)
CNC(=O)C(C)NC(=O)C(Cc1ccccc1)NC(=O)OC(C)(C)C (stereo not given); > 100 µM (inactive)

Qu. Form field: GI50 recorded for COc1ccc(/C=C2\NC(=S)N(CN3CCOCC3)C2=O)cc1 with NCI/ADR-RES (enter value)
Ans. > 100 µM (inactive)

---

- System: KM12
- experimentSummary: NCI tumour cell line growth inhibition, 48 h
Activity calls are given as the source filed them. No stated cut-off is given here; in the data, active = GI50 up to about 1.1 µM and inactive = higher.
reportedEndpoint: GI50

Example cases with answers are listed next.
COc1c(Br)cc(/C=C(\C#N)c2ccccn2)cc1Br; > 100 µM (inactive)
CC(C)c1ccc(C2NC(S)=NC3=C2c2ccccc2C3=O)cc1 (stereo unspecified); 27.4 µM (inactive)

Report GI50 for each item below.
1. CC(=O)OC12c3ccccc3C1CCCCCC21OCCCO1 (stereo unspecified)
2. CC(C)(C)c1ccc(O)c(C(O)c2ccccn2)c1 (stereo unspecified)
3. O=C(N/C(=C\c1cccc([N+](=O)[O-])c1)c1nc2ccccc2[nH]1)c1ccccc1
4. CC1(C)OB(O)OC1(C)C

Ans.
> 100 µM (inactive)
94 µM (inactive)
69 µM (inactive)
> 100 µM (inactive)

---

- System: HOP-62
- experimentSummary: NCI tumour cell line growth inhibition, 48 h
The source made the active and inactive calls. No stated cut-off is given here; in the data, active = GI50 up to about 1.1 µM and inactive = higher.
reportedEndpoint: GI50

Example cases with answers are listed next.
Cc1sc2ncnc(NCCc3ccccc3)c2c1C; 12.8 µM (inactive)
C[C@@]1(OC(=O)c2cc([N+](=O)[O-])cc([N+](=O)[O-])c2)C[C@@H]2CCCC[C@@H]21; > 100 µM (inactive)
O=C(CC(Cl)(Cl)C(Cl)(Cl)Cl)c1ccccc1; 4.21 µM (inactive)
COc1cc(Nc2nnc3n2S(=O)(=O)c2cc(C)c(Cl)cc2S3)cc(OC)c1; 11.9 µM (inactive)
O=C(O)c1cc2ccccc2c(Cc2c(O)c(C(=O)O)cc3ccccc23)c1O [PAMOIC ACID]; > 100 µM (inactive)
Cc1c2[nH]c3ccc(Br)cc3c2c(C)c2nccc(O)c12; 13.1 µM (inactive)

Report GI50 for each item below.
1. CCCCCCCCCCCCCCCC(=O)OC1C(O)C(O)C(O)C(O)C12CO2 (stereo not given)
2. COc1cc2c(cc1OC)C1CN3C(=O)CCC3C(O)C1c1cc(OC)c(OC)cc1-2 (stereo not given)
3. Oc1ncc(N(CCCl)CCCl)c(O)n1 [URACIL MUSTARD]
4. C#CCn1c2c(c3ccccc3c1=O)C(=O)c1ccccc1-2

Ans.
1. > 100 µM (inactive)
2. > 100 µM (inactive)
3. 15 µM (inactive)
4. 11.9 µM (inactive)

---

- Tested on: 786-0
- experimentSummary: NCI tumour cell line growth inhibition, 48 h
The source made the active and inactive calls. Rule as the data show it: active = GI50 up to about 1.1 µM and inactive = higher.
Assignment: determine reported GI50 for the given compounds.

Example cases with answers are listed next.
CN(C)CCNC(=O)c1cc(-c2nccn2C)nc2ccccc12; > 100 µM (inactive)
CN(C)CCCNc1cnc2cc3ccccc3cc2n1; 31 µM (inactive)
Cc1ncc([N+](=O)[O-])n1CCNC(=O)CCn1ccnc1[N+](=O)[O-]; > 100 µM (inactive)
CC(C)(C)c1ccc(O)c(C(O)c2ccccn2)c1 (stereo unspecified); 61.8 µM (inactive)
COc1cc2c(cc1OC)C(C#N)(Cc1ccccc1)N(C(=O)c1ccccc1)C=C2 (stereo unspecified); > 100 µM (inactive)
COc1ccc(C(Nc2ccccn2)c2cc(C(C)(C)C)cc(C(C)(C)C)c2O)cc1 (stereo unspecified); 21.4 µM (inactive)
Nc1ccc(C(=O)NN2C(=O)C(Cl)C2c2ccccc2)cc1 (stereo unspecified); > 100 µM (inactive)
CC(C)(C)c1ccc2c(c1)C(=O)c1ccccc1C2=O; > 100 µM (inactive)

Report GI50 for each item below.
1. CC(C)C1CC2C(=O)N(c3ccccc3)C(=O)C2c2[nH]c3ccccc3c21 (stereo unspecified)
2. CCOc1ccccc1NC(=O)C(=O)CC(=O)c1sc(Nc2nnc(-c3ccc(Cl)c(Cl)c3)o2)nc1C
3. Cc1cc(NC[C@H](O)[C@H](O)[C@H](O)CO)c(Sc2cc(=O)[nH]c(=O)[nH]2)cc1C
4. O=C(N/C(=C\c1cccc([N+](=O)[O-])c1)c1nc2ccccc2[nH]1)c1ccccc1
5. Cc1cc(S(=O)(=O)Nc2nc(N)nc(N(C)C)n2)c(S)cc1Cl

Ans.
1. 21.1 µM (inactive)
2. > 100 µM (inactive)
3. > 62.5 µM (inactive)
4. 55.2 µM (inactive)
5. > 10 µM (inactive)

Report GI50 for each item below.
1. COc1cc(O)c2c(c1)C(=O)c1cc3c(c(O)c1C2=O)C(OC1OC(C)C(OC)C(O)C1OC)C(OC)C(C)(O)C3=O (stereo unspecified)
2. [C-]#[N+]C(=C\c1ccc(O)cc1)/C(=C/c1ccc(O)cc1)[N+]#[C-]
3. CCOC(=O)C1CCCCN1C(=O)OCc1ccccc1 (stereo unspecified)
4. Cc1cc(=O)nc(S(=O)(=O)NC(=S)Nc2ccc(Br)cc2)[nH]1
5. Nc1ncnc2c1ncn2CCOC(c1ccccc1)P(=O)(O)O (stereo unspecified)
6. COc1ccc(/C=C2\N=C3NC(=O)C(N4CCOCC4)=C(N)N3C2=O)cc1

Ans.
1. 5.28 µM (inactive)
2. 6.4 µM (inactive)
3. > 100 µM (inactive)
4. > 100 µM (inactive)
5. > 100 µM (inactive)
6. 53 µM (inactive)

Report GI50 for each item below.
1. CCOC(=O)c1c(C)n(Cc2ccccc2)c2c1cc(O)c1[nH]c3c(c12)CCCC3
2. NNC(=O)COc1nc(-c2cccs2)nc2ccc(I)cc12

Ans.
1. 16.1 µM (inactive)
2. 25.5 µM (inactive)
